Value source: patent US20210330611A1

System: LPS-induced microglia activation
Test: Image-based assay of LPS-induced microglia activation (HTS and dose response)
Type: cell-based, rat
Settings: 10 µM
molecules and their reported LPS % inhibition
Reply numerically in %, unit not repeated.

In [3]: df
Out[3]:
                                   molecule  data_value
0  Cc1cn([C@H]2C[C@H](N=[N+]=[N-])[C@@H](CO)O2)c(=O)[nH]c1=O          13

LPS % inhibition reading for N[C@@H]1C[C@H]1c1ccccc1.N[C@H]1C[C@@H]1c1ccccc1.O=S(=O)(O)O [Tranylcypromine Sulfate] : 17

LPS % inhibition reading for Clc1ccc(C(Cn2ccnc2)OCc2ccsc2Cl)c(Cl)c1 (stereo not drawn) : 8
